Target: T1, TDP-210 peptide (human)
T1 construct: 8-mer of human TDP-43; same ELISA method as for the biotinylated 15-mers
T1 peptide: FFSQYGDV
Assay: indirect ELISA, 8-mer peptide library
MEASURED_PROPERTY: binding result

BINDER	MEASURED_PROPERTY	RESULT
ACI-7062-412A7-Ab1 (antibody, IgG2b, V domains shown, also called 412A7B7; clone 9) VH: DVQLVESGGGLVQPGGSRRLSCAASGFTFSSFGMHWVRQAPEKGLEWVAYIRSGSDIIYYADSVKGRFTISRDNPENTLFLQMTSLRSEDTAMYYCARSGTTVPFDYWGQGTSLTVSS VL: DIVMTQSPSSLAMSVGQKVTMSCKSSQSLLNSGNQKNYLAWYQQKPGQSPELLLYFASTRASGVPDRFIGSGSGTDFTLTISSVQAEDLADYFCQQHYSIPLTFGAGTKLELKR	binding result	no binding
ACI-7062-416A11-Ab1 (antibody, IgG2a, V domains shown, also called 416A11B3; clone 18) VH: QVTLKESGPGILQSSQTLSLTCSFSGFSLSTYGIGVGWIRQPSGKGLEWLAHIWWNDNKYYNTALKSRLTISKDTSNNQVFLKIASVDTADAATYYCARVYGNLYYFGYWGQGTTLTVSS VL: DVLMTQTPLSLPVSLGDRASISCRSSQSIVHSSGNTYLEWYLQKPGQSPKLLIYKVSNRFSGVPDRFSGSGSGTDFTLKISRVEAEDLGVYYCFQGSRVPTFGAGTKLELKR	binding result	no binding
ACI-7062-406E3-Ab2 (antibody, IgG2a, V domains shown, also called 406E3G10; clone 6) VH: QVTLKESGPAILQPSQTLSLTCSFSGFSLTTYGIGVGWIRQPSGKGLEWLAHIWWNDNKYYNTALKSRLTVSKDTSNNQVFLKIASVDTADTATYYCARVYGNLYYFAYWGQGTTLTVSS VL: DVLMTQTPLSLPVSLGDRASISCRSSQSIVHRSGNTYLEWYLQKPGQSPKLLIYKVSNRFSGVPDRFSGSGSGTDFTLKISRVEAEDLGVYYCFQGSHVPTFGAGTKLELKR	binding result	no binding
